Experiment: Inhibition of influenza A virus chicken/Nakorn-Patom/Thailand/CU-K2-2004 Neuraminidase N1 at pH 7.4 by DIANA assay
assay-endpoint: pKi
Please express pKi as -log10 of the molar concentration.

Briefly, pKi measured for CCC(CC)O[C@@H]1C=C(C(=O)O)C[C@H](n2cc(C[C@H](N)C(=O)O)nn2)[C@H]1NC(C)=O : 4.60

Noted for CCC(CC)O[C@@H]1C=C(C(=O)O)C[C@H](n2cc(CNc3ccc(NC(C)=O)cc3)nn2)[C@H]1NC(C)=O : its pKi reads 5.25

// recorded pKi for CCC(CC)O[C@@H]1C=C(C(=O)O)C[C@H](n2cc(CO)nn2)[C@H]1NC(C)=O : 5.28

// field: pKi; key: CCC(CC)O[C@@H]1C=C(C(=O)O)C[C@H](NCc2cn(CC(=O)N(C)C)nn2)[C@H]1NC(C)=O ; value = 5.51

Reported pKi for CCC(CC)O[C@@H]1C=C(C(=O)O)C[C@H](NCc2cn(CC(C)(CO)CO)nn2)[C@H]1NC(C)=O was 6.15

Value of pKi reported for the compound CCC(CC)O[C@@H]1C=C(C(=O)O)C[C@H](n2cc(CN(C)c3ccc(OC)cc3)nn2)[C@H]1NC(C)=O is 5.09
